Each recorded value in this set is attributed to the supplement of paper PMC10065799.

Molecular target: EPHB1 (UniProt P54762)
Sequence (P54762 whole entry, looked up): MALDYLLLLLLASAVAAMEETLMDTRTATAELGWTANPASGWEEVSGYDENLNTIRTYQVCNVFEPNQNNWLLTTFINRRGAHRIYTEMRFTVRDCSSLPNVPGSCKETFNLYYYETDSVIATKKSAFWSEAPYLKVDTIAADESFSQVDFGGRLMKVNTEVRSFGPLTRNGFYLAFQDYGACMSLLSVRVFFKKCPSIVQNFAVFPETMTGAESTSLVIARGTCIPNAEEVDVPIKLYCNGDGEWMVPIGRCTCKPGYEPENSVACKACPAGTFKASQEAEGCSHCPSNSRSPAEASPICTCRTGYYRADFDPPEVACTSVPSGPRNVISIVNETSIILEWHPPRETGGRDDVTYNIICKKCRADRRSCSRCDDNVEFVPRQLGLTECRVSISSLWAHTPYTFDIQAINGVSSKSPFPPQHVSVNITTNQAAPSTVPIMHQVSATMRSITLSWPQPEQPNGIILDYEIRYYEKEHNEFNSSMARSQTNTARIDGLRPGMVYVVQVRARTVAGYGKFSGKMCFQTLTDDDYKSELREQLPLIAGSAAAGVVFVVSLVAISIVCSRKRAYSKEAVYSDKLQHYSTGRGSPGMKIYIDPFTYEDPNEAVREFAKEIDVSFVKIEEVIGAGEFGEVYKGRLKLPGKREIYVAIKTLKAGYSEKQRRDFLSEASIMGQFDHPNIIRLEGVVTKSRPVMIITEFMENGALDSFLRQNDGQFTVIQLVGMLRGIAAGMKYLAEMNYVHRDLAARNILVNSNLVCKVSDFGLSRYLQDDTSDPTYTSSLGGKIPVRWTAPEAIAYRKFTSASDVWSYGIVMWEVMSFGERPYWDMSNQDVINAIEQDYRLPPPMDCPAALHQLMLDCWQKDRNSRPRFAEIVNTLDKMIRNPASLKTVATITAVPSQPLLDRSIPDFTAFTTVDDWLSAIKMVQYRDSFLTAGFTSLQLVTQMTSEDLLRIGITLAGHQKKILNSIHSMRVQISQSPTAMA
Assay: phosphorylation enrichment, bacterial display (enrichment ratio); higher = better substrate or ligand; peptides without Tyr show the background;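 note: 11-residue human phosphosite peptides and single-mutation variants displayed on the E. coli surface, counted by deep sequencing, each peptide's frequency after selection divided by its frequency in the unselected input library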;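 note: frequency after pTyr selection over input frequency; kinase dosed for 20-30% of maximal phosphorylation in three min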
observation.type: phosphorylation enrichment
Answer field: number only, no words.

These solved cases illustrate the format of a correct answer.
# residue.sequence, assayed.system, value.observed
rows = [
    ("EKAEVYGSENE [RIOK2_Y348]", "EPHB1 (UniProt P54762)", 0.464),
    ("VRSNHYDPEED [TJP1_Y1346]", "EPHB1 (UniProt P54762)", 0.494),
    ("HNLNFYKKTTN [FGFR3_Y648_D646N_YF]", "EPHB1 (UniProt P54762)", 0.761),
    ("YRAVKYLQMVG [AVPR2_Y117_C112Y]", "EPHB1 (UniProt P54762)", 0.582),
    ("KNSSIYVVANI [VNN1_Y134_N131S]", "EPHB1 (UniProt P54762)", 0.681),
    ("NRSSLYLVAGP [KIAA1614_Y1083]", "EPHB1 (UniProt P54762)", 0.591),
    ("DSMQSYDLDYP [UNC13B_Y243]", "EPHB1 (UniProt P54762)", 0.4),
    ("FDDIAYIQKTL [PIK3CA_Y1021_R1023Q]", "EPHB1 (UniProt P54762)", 0.425),
    ("DNEALYDICFC [TUBB3_Y208_R213C]", "EPHB1 (UniProt P54762)", 4.22),
    ("FADGVYQALEE [DUOX2_Y70_YF]", "EPHB1 (UniProt P54762)", 1.97),
]

Problem: I would be grateful if you could share the reported phosphorylation enrichment for NVGGKYSFLKV [GRM3_Y478_YF] .
Solution: 0.472

Problem: I would be grateful if you could share the reported phosphorylation enrichment for VSLEAYCKHKY [RXRA_Y403_A398V] .
Solution: 0.7

Problem: I would be grateful if you could share the reported phosphorylation enrichment for NRVEIYDKTVE [CYFIP1_Y108_E109D] .
Solution: 0.495

====

Target: Fes (UniProt P07332)
Sequence (P07332 whole entry, looked up): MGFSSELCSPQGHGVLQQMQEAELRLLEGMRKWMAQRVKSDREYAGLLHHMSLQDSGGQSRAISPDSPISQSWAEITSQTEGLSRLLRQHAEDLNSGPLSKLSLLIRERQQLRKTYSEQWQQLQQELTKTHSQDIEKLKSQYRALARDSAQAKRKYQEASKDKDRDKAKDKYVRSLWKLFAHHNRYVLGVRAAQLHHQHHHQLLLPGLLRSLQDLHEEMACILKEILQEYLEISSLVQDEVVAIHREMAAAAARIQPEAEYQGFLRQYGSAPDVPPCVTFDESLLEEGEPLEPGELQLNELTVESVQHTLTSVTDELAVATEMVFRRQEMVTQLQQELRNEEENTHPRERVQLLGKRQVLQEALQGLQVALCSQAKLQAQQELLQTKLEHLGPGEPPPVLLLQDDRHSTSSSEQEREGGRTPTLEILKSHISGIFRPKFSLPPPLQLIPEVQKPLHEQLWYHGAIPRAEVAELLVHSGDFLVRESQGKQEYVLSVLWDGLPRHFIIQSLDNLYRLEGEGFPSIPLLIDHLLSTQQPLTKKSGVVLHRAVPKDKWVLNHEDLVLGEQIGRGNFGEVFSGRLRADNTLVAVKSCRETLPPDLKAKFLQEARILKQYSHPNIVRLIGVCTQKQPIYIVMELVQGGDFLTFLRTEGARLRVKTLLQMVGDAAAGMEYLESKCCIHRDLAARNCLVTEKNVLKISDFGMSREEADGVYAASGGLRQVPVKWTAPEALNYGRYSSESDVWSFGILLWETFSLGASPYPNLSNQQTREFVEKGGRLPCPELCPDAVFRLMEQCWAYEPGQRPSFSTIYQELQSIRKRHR
Assay: phosphorylation enrichment, bacterial display (enrichment ratio); higher = better substrate or ligand; peptides without Tyr show the background
phosphorylation enrichment overview
Answer field: number only, no words.

These solved cases illustrate the format of a correct answer.
# residue.sequence, assayed.system, phosphorylation enrichment
rows = [
    ("STKPQYQPGEN [SRC_Y530_E527K]", "Fes (UniProt P07332)", 0.579),
    ("NPPGMYPVTGP [LPP_Y346]", "Fes (UniProt P07332)", 0.531),
    ("PLDGEYFTPQI [TP53_Y327_L330P]", "Fes (UniProt P07332)", 1.34),
]

Problem: I would be grateful if you could share the reported phosphorylation enrichment for PTYKHYANSTQ [SLC12A3_Y70_E68K] .
Solution: 0.592

Problem: I would be grateful if you could share the reported phosphorylation enrichment for KLQQWYREPRS [GPI_Y17_H20P] .
Solution: 0.708

Problem: I would be grateful if you could share the reported phosphorylation enrichment for KPGVNYFFRVS .
Solution: 1.32

Problem: I would be grateful if you could share the reported phosphorylation enrichment for RLSPEYKQNEI [GJB1_Y243] .
Solution: 0.682

Problem: I would be grateful if you could share the reported phosphorylation enrichment for GEDLSYGDLPP [IRS1_Y151_V154L] .
Solution: 1.34

Problem: I would be grateful if you could share the reported phosphorylation enrichment for DEQKKYYNAMK [SCN5A_Y1494_E1489D] .
Solution: 0.772

Problem: I would be grateful if you could share the reported phosphorylation enrichment for GIYSGYDDAWD [POLR1C_Y36_N32I] .
Solution: 1.09

Problem: I would be grateful if you could share the reported phosphorylation enrichment for LFSDHYSPSGR [TMPRSS12_Y23_YF] .
Solution: 0.574
